test system: SARS-CoV-2; test: microbe, parasite or virus in culture; assay type: cell-based, SARS-CoV-2 isolate BetaCov/Belgium/GHB-03021/2020; settings: […]; read-out: EC50 (anti-SARS-CoV-2 activity)
QUANTITY_NAME: EC50

[[record]]
compound = "O[C@H]1[C@H]2c3cc4c(cc3CN3CCC(C[C@H]1O)[C@H]23)OCO4 (stereo partly shown) [Compound 8, zephyranthine]"
reported_measurement = "39 µM"


----------
pIC50 for assorted compounds
tested on: SARS-CoV-2; experiment: microbe, parasite or virus in culture; assay type: cell-based, SARS-CoV-2 isolate BetaCov/Belgium/GHB-03021/2020; settings: Severe acute respiratory syndrome coronavirus 2; read-out: av. IC50
pIC50: −log10 of the molar value.
QUANTITY_NAME: pIC50

[[record]]
compound = "O[C@H]1[C@H]2c3cc4c(cc3CN3CCC(C[C@H]1O)[C@H]23)OCO4 (some centres unmarked)"
measurement_target = "SARS-CoV-2"
bound_sign = "="
reported_measurement = 4.40

[[record]]
compound = "O[C@H]1[C@H]2c3cc4c(cc3CN3CCC(=C[C@@H]1O)[C@H]23)OCO4"
measurement_target = "SARS-CoV-2"
bound_sign = "<"
reported_measurement = 4.00

[[record]]
compound = "O[C@H]1[C@H]2c3cc4c(cc3CN3CCC(=C[C@H]1O)[C@H]23)OCO4 [Compound 7, 2-epi-lycorine]"
measurement_target = "SARS-CoV-2"
bound_sign = "="
reported_measurement = 4.27

[[record]]
compound = "COc1cc2c(cc1O)[C@@H](OC)O[C@@H]1CC=C3CCN(C)[C@H]3[C@H]21"
measurement_target = "SARS-CoV-2"
bound_sign = "="
reported_measurement = 4.11

[[record]]
compound = "[O-]c1cc2c3c(c1)c1cc4c(cc1c[n+]3CC2)OCO4"
measurement_target = "SARS-CoV-2"
bound_sign = "<"
reported_measurement = 4.00

[[record]]
compound = "COc1cc2c(cc1O)[C@@H]1[C@H](O)[C@H](O)C=C3CCN(C2)[C@H]31 (racemic) [Compounds 2 and 3, (±)-2-epi-pseudolycorine]"
measurement_target = "SARS-CoV-2"
bound_sign = "<"
reported_measurement = 4.00

[[record]]
compound = "Oc1ccc2c3c1OC1CC(O)CCC31CCNC2 (centres unmarked)"
measurement_target = "SARS-CoV-2"
bound_sign = "="
reported_measurement = 4.34

[[record]]
compound = "O=C1N[C@H]2[C@H](O)[C@H](O)[C@@H](O)[C@H](O)[C@@H]2c2cc3c(c(O)c21)OCO3"
measurement_target = "SARS-CoV-2"
bound_sign = "<"
reported_measurement = 4.00


----------
test: in vitro; conditions: African green monkey, CC50 (cytotoxicity on Vero-E6 cells), MTS-assay, absence of virus
QUANTITY_NAME: CC50

[[record]]
molecule = "COc1cc2c(cc1O)[C@@H]1[C@H](O)[C@H](O)C=C3CCN(C2)[C@H]31 (racemic) [Compounds 2 and 3, (±)-2-epi-pseudolycorine]"
reported_measurement = "> 100 µM"

[[record]]
molecule = "O[C@H]1[C@H]2c3cc4c(cc3CN3CCC(=C[C@H]1O)[C@H]23)OCO4 [Compound 7, 2-epi-lycorine]"
reported_measurement = "> 100 µM"

[[record]]
molecule = "COc1cc2c(c(O)c1OC)[C@]13CC[C@H](OC)C[C@H]1N(CC3)[C@@H]2O [Compound 4, 6α-hydroxyhippeastidine]"
reported_measurement = "> 100 µM"

[[record]]
molecule = "O[C@H]1[C@H]2c3cc4c(cc3CN3CCC(=C[C@@H]1O)[C@H]23)OCO4"
reported_measurement = "1.2 µM"

[[record]]
molecule = "COc1cc2c(c(O)c1OC)[C@]13CC[C@H](OC)C[C@H]1N(CC3)[C@H]2O [Compound 5, 6β-hydroxyhippeastidine]"
reported_measurement = "> 100 µM"

[[record]]
molecule = "COc1cc2c(cc1O)[C@@H](OC)O[C@@H]1CC=C3CCN(C)[C@H]3[C@H]21"
reported_measurement = "> 100 µM"

[[record]]
molecule = "O=C1N[C@H]2[C@H](O)[C@H](O)[C@@H](O)[C@H](O)[C@@H]2c2cc3c(c(O)c21)OCO3"
reported_measurement = "0.13 µM"

[[record]]
molecule = "[O-]c1cc2c3c(c1)c1cc4c(cc1c[n+]3CC2)OCO4"
reported_measurement = "> 100 µM"

[[record]]
molecule = "Oc1ccc2c3c1OC1CC(O)CCC31CCNC2 (stereo not shown)"
reported_measurement = "> 100 µM"

[[record]]
molecule = "O[C@H]1[C@H]2c3cc4c(cc3CN3CCC(C[C@H]1O)[C@H]23)OCO4 (stereo partly shown)"
reported_measurement = "> 100 µM"


All values here come from paper PMC10096449.
